# experimental_protocol: blockers of mitochondrial fusion, WT vs mutant – cell-based, chemical genetic, wild-type and mutant, confirmation (AID 1361)
# conditions: Cell-based mitochondrial fusion phenotype, imaging, WT cells
Calls of active or inactive are those of the source. The rule behind the calls is not given here.
Outcome (select one): active, inactive

Just curious, what result did COc1ccccc1C1(CCNS(=O)(=O)c2ccc(C)cc2)CCOC(C(C)C)C1 (configuration not stated) get here?
active

Thanks! And Nc1c(C(=O)NC2CCCC2)sc2nc(-c3cccs3)ccc12 ?
inactive

// query: Cc1ccc2c(c1)c1c(n2CC(O)Cn2nc(C)c(Br)c2C)CCCC1 (configuration not stated)
active

Same lookup for CCc1ccc(-c2nn(-c3ccccc3)cc2CSC(=N)N)cc1 , please.
inactive

Can you handle O=C(N/N=C/c1cccc(F)c1)c1cc(-c2ccco2)nc2ccccc12 next?
inactive

Query Cc1ccc2nc(-c3ccccc3)c(CN3CCN(c4ccccc4F)CC3)n2c1 next
active

Also, CC1(C)C(=O)OC(c2cccn2-c2cccc([N+](=O)[O-])c2)C2(CCCCC2)C1=O (configuration not stated) please.
active

Here is the next compound: COc1ccc2ccc3c(c2c1)N=C[C@]1(O3)N(C)c2ccccc2C1(C)C
active

Another compound to look at: COc1ccc(N/C(N)=N/c2nc(CSc3ccc(C)cc3)cc(=O)[nH]2)cc1
inactive

Ok, now CCOC(=O)N1CCN(S(=O)(=O)c2ccc(C)cc2)C1c1ccc(OC)cc1 (configuration not stated)
inactive

Cool, now COc1ccc(NC(=S)N(CCCN2CCCC2)Cc2cccn2Cc2ccc(Cl)cc2)cc1Cl
active

Also check c1ccc(-c2nnc(CSc3nnc(-c4ccncc4)n3Cc3ccco3)o2)cc1
inactive

CCOC(=O)N1CCN(S(=O)(=O)c2ccc(C)c(C)c2)CC1 , same question.
inactive

// query: COc1ccccc1NC(=O)COC(=O)c1ccc([N+](=O)[O-])s1
active

Please answer likewise for S=C(Nc1ccc(Oc2ccccc2)cc1)NC1CCCCCC1
active

Next: O=c1c2cn[nH]c2nc(SCc2ccccc2F)n1-c1ccc(Br)cc1
active

Same question for COc1ccccc1N1CCN(C(=O)c2oc3cc(C)cc(C)c3c2C)CC1 please.
active

And the next one, O=C1COc2ccc(NC(=O)N3CCN(c4ccc(F)cc4)CC3)cc2N1 ?
inactive

Please do the same for COC(=O)C1=C(Nc2ccc(C)cc2)C=C(C)C(C(=O)OC)C1c1ccc(F)cc1 (configuration not stated) as well.
active

Queued: O=C(CCc1ccccc1)Nc1ncc2c(n1)CCCC2=O
inactive

Param item: Cc1cccc(N/N=C(\C=N\N)C(=O)c2ccc(Br)cc2)c1
inactive

Would you mind doing COc1ccc(Cn2nc(-c3ccccc3)c(N3CCCCC3)cc2=O)cc1 as well?
active

###

# experimental_protocol: blockers of mitochondrial fusion, WT vs mutant – cell-based, chemical genetic, wild-type and mutant, confirmation (AID 1361)
# conditions: Cell-based mitochondrial fusion phenotype, imaging, WT cells
Active and inactive are the calls of the source. How the calls were made is not given here.
Form entry, call: pick from active, inactive

So what was the verdict on CCOc1ccc(-n2c(SCC(=O)Nc3cc(C)on3)nnc2-c2c[nH]c3ccccc23)cc1 in this test?
inactive

Similarly, CN1C=CC=C/C1=C1\SC(=S)N(c2ccccc2)C1=O ?
inactive

Lookup O=C1/C(=C/c2cccc3ccccc23)CCCc2ccccc21
active

Repeat with Cc1ccc(NC(=S)N(Cc2ccc(Br)cc2)Cc2ccc(C(=O)O)cc2)cc1C
inactive

Input CCC1Oc2ccc(C)cc2N(CC(=O)N(Cc2ccc(C)o2)C2CCCC2)C1=O (stereo not given)
inactive

What about Cc1ccc(S(=O)(=O)NCc2ccco2)c(C)c1C ?
inactive

Same thing, different molecule: CC1CN(c2ncnc3c2c(-c2ccccc2)cn3-c2ccc(F)cc2)CC(C)O1 (stereo not given)
active

Record: CCOc1ccc(Cc2c(Cl)nc(SC)nc2N(C)C)cc1
active

# repeat for O=C(OCC(=O)N1CCN(C(=O)c2ccco2)CC1)c1cn(-c2ccccc2)nc1-c1ccccc1
active

Now try Clc1ccc(C(c2nnnn2C2CCCCC2)N(Cc2cccnc2)Cc2ccco2)cc1 (stereo not given) .
active
